# Measurement description: chemical genetic growth profiling, strain panel (AID 1159580);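 note: tested at 20 µM; growth read once vehicle control cultures reached saturation at 30 °C; 1 = growth at the plate median or of vehicle wells; lower values mean less growth of the strain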
# Experimental context: S. cerevisiae deletion strains, growth OD, locus YBL061C, strain skt5, stronger effect = lower value
About 2,000 (36%) of roughly 5,500 compounds were called active. Inconclusive results (about 18%) are left out. The list shows a part of the results.
Measured normalized growth accompanies every entry in the list below.
Readout kind: normalized growth

| Compound | Test result |
| --- | --- |
| CC[C@H]1OC(=O)[C@H](C)[C@@H](O[C@H]2C[C@@](C)(OC)[C@@H](O)[C@H](C)O2)[C@H](C)[C@@H](O[C@@H]2O[C@H](C)C[C@H](N(C)C)[C@H]2O)[C@](C)(O)C[C@@H](C)/C(=N/OCOCCOC)[C@H](C)[C@@H](O)[C@]1(C)O | 1.01 |
| O=C(O)CC[N+](=O)[O-] | 1.01 |
| COc1ccccc1OCC(O)COC(N)=O (stereo not given) | 0.989 |
| CNC(=O)N(C)c1nnc(C(C)(C)C)s1 | 0.997 |
| CC12CCC(OC(=O)c3ccccc3)CC1CCc1ccccc12 (stereo not given) | 0.995 |
| O=c1c(O)c(-c2ccccc2)oc2cc(O)ccc12 | 0.685 |
| COc1cc2c(cc1OC)C(C)NCC2 (stereo not given) | 0.97 |
| CCCC(=O)Nc1ccc(OCC(O)CNC(C)C)c(C(C)=O)c1 (stereo not given) | 1.02 |
| O=c1c(O)c(-c2ccccc2)oc2ccc3occc3c12 | 0.811 |
| O=c1c(O)c(-c2ccc(O)cc2)oc2ccccc12 | 0.714 |
